tgt: Glucocorticoid receptor (Homo sapiens) (UniProt P04150)
Sequence (whole entry): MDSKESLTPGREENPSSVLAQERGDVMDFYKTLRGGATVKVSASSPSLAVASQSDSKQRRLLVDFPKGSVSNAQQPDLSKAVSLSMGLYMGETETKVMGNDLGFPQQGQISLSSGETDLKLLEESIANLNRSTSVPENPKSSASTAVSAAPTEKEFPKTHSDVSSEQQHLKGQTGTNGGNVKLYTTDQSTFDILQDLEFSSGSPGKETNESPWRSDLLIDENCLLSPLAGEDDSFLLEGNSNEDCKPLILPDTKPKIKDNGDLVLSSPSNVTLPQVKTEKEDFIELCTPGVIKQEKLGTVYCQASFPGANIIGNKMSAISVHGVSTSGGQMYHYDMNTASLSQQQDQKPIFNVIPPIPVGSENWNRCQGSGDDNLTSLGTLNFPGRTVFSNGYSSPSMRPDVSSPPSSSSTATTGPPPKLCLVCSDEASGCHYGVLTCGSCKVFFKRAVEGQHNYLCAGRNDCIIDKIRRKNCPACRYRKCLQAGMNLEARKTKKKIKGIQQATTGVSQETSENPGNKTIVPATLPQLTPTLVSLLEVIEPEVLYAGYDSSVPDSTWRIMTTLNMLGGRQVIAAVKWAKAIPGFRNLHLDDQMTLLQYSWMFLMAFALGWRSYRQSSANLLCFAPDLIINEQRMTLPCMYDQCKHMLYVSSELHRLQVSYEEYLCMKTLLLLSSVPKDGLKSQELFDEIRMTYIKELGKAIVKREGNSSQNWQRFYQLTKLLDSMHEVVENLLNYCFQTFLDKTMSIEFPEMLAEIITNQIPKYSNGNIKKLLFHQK
test-context: HeLa
Description: Relative transcriptional activation in HeLa cells expressing glucocorticoid receptor
measured-quantity: RSA
// return a plain number; no unit text

The cases that follow already have their RSA on record.
compound="C[C@@H]1CC2C3CCC4=Cc5c(cnn5-c5ccncn5)CC4(C)C3C(O)CC2(C)[C@@]1(O)C(=O)CO (some centres not stated)" measured_quantity=RSA recorded_result=0
compound="C[C@@H]1CC2C3CCC4=Cc5c(cnn5-c5ccncc5)CC4(C)C3C(O)CC2(C)[C@@]1(O)C(=O)CO (some centres not stated)" measured_quantity=RSA recorded_result=135
compound="C[C@@H]1CC2C3CCC4=Cc5c(cnn5-c5cccnc5Cl)CC4(C)C3C(O)CC2(C)[C@@]1(O)C(=O)CO (some centres not stated)" measured_quantity=RSA recorded_result=97
compound="C[C@@H]1CC2C3CCC4=Cc5c(cnn5-c5ncccn5)CC4(C)C3C(O)CC2(C)[C@@]1(O)C(=O)CO (some centres not stated)" measured_quantity=RSA recorded_result=0
compound="C[C@@H]1CC2C3CCC4=Cc5c(cnn5-c5ccccn5)CC4(C)C3C(O)CC2(C)[C@@]1(O)C(=O)CO (some centres not stated)" measured_quantity=RSA recorded_result=30
compound="C[C@@H]1CC2C3CCC4=Cc5c(cnn5-c5ccc(F)cc5)CC4(C)C3C(O)CC2(C)C1(O)C(=O)CO (some centres not stated)" measured_quantity=RSA recorded_result=483
compound="C[C@@H]1CC2C3CCC4=Cc5c(cnn5-c5cccnc5F)CC4(C)C3C(O)CC2(C)[C@@]1(O)C(=O)CO (some centres not stated)" measured_quantity=RSA recorded_result=121
compound="C[C@@H]1CC2C3CCC4=Cc5c(cnn5-c5ccc(F)nc5)CC4(C)C3C(O)CC2(C)[C@@]1(O)C(=O)CO (some centres not stated)" measured_quantity=RSA recorded_result=436

[Q] Using the record for C[C@@H]1CC2C3CCC4=Cc5c(cnn5-c5cnccc5Cl)CC4(C)C3C(O)CC2(C)[C@@]1(O)C(=O)CO (some centres not stated) , report its RSA.
[A] 33

[Q] Follow-up item: C[C@@H]1C[C@H]2[C@@H]3CCC4=CC(=O)C=C[C@]4(C)[C@@]3(F)[C@@H](O)C[C@]2(C)[C@@]1(O)C(=O)CO
[A] 100

[Q] Follow-up item: C[C@@H]1CC2C3CCC4=Cc5c(cnn5-c5ccc(Cl)nc5)CC4(C)C3C(O)CC2(C)[C@@]1(O)C(=O)CO (some centres not stated)
[A] 24

[Q] # repeat for C[C@@H]1CC2C3CCC4=Cc5c(cnn5-c5cccnc5)CC4(C)C3C(O)CC2(C)[C@@]1(O)C(=O)CO (some centres not stated)
[A] 255
